Values from patent US20220112288A1

Consider the following binders and their measured SKW3 WT vs KO anti-hKappa-FITC readings.
target: T1, human CD4 on the surface of SKW3 cells or human PBMCs (human, UniProt P01730 26-458); experiment: FACS primary screen, non-clonal hybridoma supernatant, SKW3 vs SKW3 CD4 KO cells, anti-human kappa FITC
T1 construct: whole, on cells; SKW3 CD4 knockout cells served as the negative cell line; also called hCD4; SKW3 WT
measuredQuantity: SKW3 WT vs KO anti-hKappa-FITC (ratio)

>>> measurednumber("75110_04K10A (antibody, V domains shown, Tested here as non-clonal hybridoma supernatant from AlivaMab Mouse Kappa mice (detected with anti-mouse Fc and anti-human kappa)) VH: EVQLVESGGGLVQPGGSLRLSCAASGFTFSSYWMSWVRQAPGKGLEWVANINQDGSEKYYVDSVKGRFTISRDNAKNSLYLQLNSLRAEDTAMYYCAREGGQWLSLDYWGQGTLVTVSS VL: DIQMTQSPSSVSASVGDRVTITCRASQGISSWLAWYQQKPGKAPKVLIYGVSSFQSGVPSRFSGSGSGTDFILTISSLQPEDFATYYCQQANSFPWTFGQGTKVEIK")
1.5
>>> measurednumber("75110_12H19A (antibody, V domains shown, Tested here as non-clonal hybridoma supernatant from AlivaMab Mouse Kappa mice (detected with anti-mouse Fc and anti-human kappa)) VH: EVQLVESGGGLVQPGGSLRLSCAASGFTFSSYWMSWVRQAPGQGLEWVANINEDGNEKYHVDSVKGRLTISRDNAKNSLYLQMNSLRGVDTAVYFCAREGGQWLALDYWGQGALVTVSS VL: DIQMTQSPSSVSASVGDRVSITCRASQGISSWLAWYQQKPGKAPKLLIYGASGLQSGVPSRFSGSGSGTDFTLTISSLQPEDFATYYCQQANSFPWTFGQGTKVEIK")
2.4
>>> measurednumber("75110_07H07A (antibody, V domains shown, Tested here as non-clonal hybridoma supernatant from AlivaMab Mouse Kappa mice (detected with anti-mouse Fc and anti-human kappa)) VH: EVQVVESGGGLVQPGGSLRLSCAASGFTFSSYWMSWVRQAPGKGLEWVANIKEEGSEKYYVDSVKGRFTISRDNAKNSLYLQMNSLRAEDTAVYYCVREGGQWLALDYWGQGTLVTVSS VL: DIQMTQSPSSVSGSVGDRVTITCRASQGISSWLAWYQQKPGKAPKLLIFGASSLQSGVPSRFSGSGSGTDFTLTISSLQPEDFATYYCQQANSFPWTFGQGTKVQIK")
2.3
>>> measurednumber("75110_03D16A (antibody, V domains shown, Tested here as non-clonal hybridoma supernatant from AlivaMab Mouse Kappa mice (detected with anti-mouse Fc and anti-human kappa)) VH: EVQLVESGGGLVQPGGSLRLSCAASGFTFSSYWMSWVRQAPGKGLEWVANINQDGGEKYYVDSVKGRFTISRDNAKNSLYLQMNSLRAEDTAVYYCVREGGQWLALDYWGQGTLVTVSS VL: DIQMTQSPSSVSASVGDRVTITCRASQGISSWLTWYQQKPGKAPKFLIYAASSLQSGVPSRFSGSGFGTDFTLTISSLQPEDFATYYCQQANSFPWTFGQGTKVEIK")
2.8
>>> measurednumber("75110_04P08A (antibody, V domains shown, Tested here as non-clonal hybridoma supernatant from AlivaMab Mouse Kappa mice (detected with anti-mouse Fc and anti-human kappa)) VH: QVQLQQWGAGLLKPSETLSLTCAVYGGSLSGYYWSWIRQSPGKGLEWIGEINQSGSTNYNPSLKSRVTISVDTSKDQFSLRLTSVTAADTAVYYCTRVLNWFDPWGRGTLVTVSS VL: DIQMTQSPSSVSASVGDRVTLTCRASQDISNWLAWYQQKPGKAPKLLIYAASSLQSGVPSRFSGSGSGTDFTLTISSLQTEDFATYYCQQANSFPYTFGQGTKLEIK")
3
